experimental-system: Sigma non-opioid intracellular receptor 1 (Mus musculus)
Sequence (O55242 whole entry): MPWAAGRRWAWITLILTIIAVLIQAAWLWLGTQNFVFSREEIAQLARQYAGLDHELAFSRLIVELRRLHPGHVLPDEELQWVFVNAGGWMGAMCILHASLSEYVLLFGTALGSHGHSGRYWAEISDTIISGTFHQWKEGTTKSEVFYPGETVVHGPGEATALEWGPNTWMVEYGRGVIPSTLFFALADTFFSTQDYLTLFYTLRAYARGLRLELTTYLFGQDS
method-notes: In vitro binding affinity for the mouse sigma opioid receptor
experimental-endpoint: pKi
Keep in mind that pKi stands for -log10 of concentration in molar terms.

According to the records, this compound `COc1ccc(OCC2CCN(Cc3ccccc3)CC2)cc1` displays pKi of 8.52

Item: O.OC(CC1CCN(CCc2ccccc2)CC1)c1ccc(F)cc1 (stereo unspecified) | pKi: 8.15

Field pKi (entry `Br.O=C(CC1CCN(CC2CC2)CC1)c1ccc(F)cc1` ) reads 8.00

pKi in this record for O.OC(CC1CCN(Cc2ccccc2)CC1)c1cccs1 (stereo unspecified) : 8.30

Measured pKi of `O.O=C(CC1CCN(Cc2ccccc2)CC1)c1ccc(O)cc1` : 7.74

Just so you know, measured pKi for `Fc1ccc(OCC2CCN(CCC3CC3)CC2)cc1.O=C(O)/C=C/C(=O)O` came out at 8.52

The values you see were collected from ChEMBL document CHEMBL1125363.
